In this section we review reported TGI values for a set of compounds.
System: MDA-MB-468 breast
Assay: NCI tumour cell line growth inhibition, 48 h

compound: CN1C(=O)N(C)C2C1NN=c1s/c(=C\c3c[nH]c4ccccc34)c(=O)n12 (centres undefined)
measured-endpoint: TGI
value-observed: > 86.8 µM

Record COc1cc(-c2nc(-c3nnc(-c4ccc(F)c(Cl)c4)o3)c3ccccn23)cc(OC)c1OC : what is its TGI with MDA-MB-468 breast?
> 100 µM

Give MDA-MB-468 breast TGI for OC(COc1cccc2ccccc12)CN1CCN(c2ccc(Cl)cc2)CC1 (centres undefined)
> 100 µM

Could you share what TGI was measured for COc1ccc(Cn2cc3c(c2-c2cc(OC)c(OC)c(OC)c2)CCCc2cnoc2-3)cc1N , tested on MDA-MB-468 breast?
> 100 µM
